system name: human IgG (human)
protocol description: SPR, synthetic peptide on human IgG
Ends that are not written are not given here.
Kindly state Kd for each of the entries shown.
Numbers only, in nM.

Example results:
binder="GPSCAYHRGELVWCTFH [C35A (D3S)]" numeric_result=28.5
binder="GPDCAYHRGELVWCTFY [C35A (H17Y)]" numeric_result=12
binder="SDDCAYHRGELVWCTFY (not fully specified; cysteine pairing not given here) [C35A (P2D, H17Y)]" numeric_result=13
binder="SPDCAYHRGELVWCTFY [C35A (G1S, H17Y)]" numeric_result=11

I have 4 binders here; please give me Kd for each one.
1. GDDCAYHRGELVWCTFH [C35A (P2D)]
2. SPDCAYHRGELVWCTFH [C35A (G1S)]
3. GPDCAYHRGELVWCTHH [C35A (F16H)]
4. GPDCAYHRGELVWCSFH [C35A (T15S)]

Response:
1. 13.3
2. 9.3
3. 11.4
4. 14.4

All figures here come from patent US20140274790A1.
